# measuredTarget: T1, cynomolgus SIRP-α D1 domain (cyno2) (cynomolgus monkey, UniProt Q5TFQ8 30-148 (human entry), limits assumed)
# T1 chain: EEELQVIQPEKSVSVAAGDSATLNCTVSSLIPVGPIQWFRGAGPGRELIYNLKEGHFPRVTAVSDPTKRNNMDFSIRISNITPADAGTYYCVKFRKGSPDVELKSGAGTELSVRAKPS
# measurementDescription: SPR, Langmuir fit
The label Met is reserved for koff strictly under 0.0002 s⁻¹; Not met covers values equal to or above it.

1. S149 (scFv, V domains shown, scFv-Fc format (VL-linker-VH on human IgG1 Fc)) VH: DVQLVESGGGVVRPGESLRLSCAASGFTFSNFAMNWVRQAPGEGLEWVSLISVTATTYYADSVKGRFTISRDNSKNTLYLQMNSLRAEDTAVYYCAKVTWNNLFDYWGLGTLVTVSS VL: EIVLTQSPGTLSLSPGERATLSCRASQPIDSYLAWYQQKPGQAPRLLIYNTVTRATGIPDRFSGSGSGTDFTLTINRLEPEDFAVYYCQHQYDWPPYIFGGGTKVEIK = Not met
2. S25 (scFv, V domains shown, also called clone 25; scFv-Fc form of AB25) VH: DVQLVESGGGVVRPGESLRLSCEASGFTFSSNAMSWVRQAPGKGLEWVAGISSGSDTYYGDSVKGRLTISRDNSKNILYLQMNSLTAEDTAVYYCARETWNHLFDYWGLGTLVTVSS VL: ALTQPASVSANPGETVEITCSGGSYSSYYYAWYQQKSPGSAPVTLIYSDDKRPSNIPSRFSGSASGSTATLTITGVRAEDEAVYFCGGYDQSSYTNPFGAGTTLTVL = Not met
3. S65 (scFv, V domains shown, also called clone 65) VH: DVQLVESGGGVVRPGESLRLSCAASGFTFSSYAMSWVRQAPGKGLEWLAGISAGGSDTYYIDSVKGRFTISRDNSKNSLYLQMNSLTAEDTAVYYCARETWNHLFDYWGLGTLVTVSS VL: ALTQPASVSANPGETVKITCSGGDYYSTYYGWYQQKSPGSAPVTVIHSDDKRPSDIPSRFSGSASGSAATLTITGVRVEDEAVYFCGAYDGRTYINTFGAGTTLTVL = Met
4. S22 (scFv, V domains shown, also called clone 22) VH: DVQLVESGGGVVRPGESLRLSCAASGFTFSSYAMSWVRQAPGKGLEWLAGISAGGSDTYYIDSVKGRFTISRRQFQEQSLSPNEPALTAEDTAVYYCARETWNHLFDYWGLGTLVTVSS VL: ALTQPASVSANPGETVKITCSGGDYYSTYYGWYQQKSPGSAPVTVIHSDDKRPSDIPSRFSGSASGSAATLTIAGVRVEDEAVYFCGAYDGRTYINTFGAGTTLTVL = Met
5. S60 (scFv, V domains shown, also called clone 60) VH: DVQLVDSGGGVVRPGESLRLSCAASGFTFSSYAMSWVRQAPGKGLEWLAGISAGGSDTYYIDSVKGRFTISRDNSKNSLYLQMNSLTAEDTAVYYCARETWNHLFDYWGLGTLVTVSS VL: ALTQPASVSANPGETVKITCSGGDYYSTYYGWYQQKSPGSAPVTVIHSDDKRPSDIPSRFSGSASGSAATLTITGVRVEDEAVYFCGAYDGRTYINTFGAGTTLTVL = Met

Measured values drawn from patent US20210363269A1 for this set.
